- System: ZEAMA Sileno
- ASSAY NAME: Safener seed treatment with pre-emergence herbicide application, crop damage test in greenhouse
- Assay type: in vivo, maize
- TEST CONTEXT: pre-emergence, herbicide 40 g a.i./ha, furilazole seed treatment 0.25 g a.i./kg seed, 26 DAT
ASSAY READOUT: HER effect + SAF [%] (%)
Answers are plain numbers, in %.

Record HER effect + SAF [%] per entry; entries follow.
1. COC(=O)C1=C[C@@H](NC(=O)[C@@]2(C)CC(c3cc(F)cc(F)c3)=NO2)CC1 [Example 1.63]
2. C=CC1(C(=O)NC2C=CC(C(=O)OC)C2)CC(c2cc(F)cc(F)c2)=NO1 (centres unmarked) [Example 1.26]

**Result**
0
10

Record HER effect + SAF [%] per entry; entries follow.
1. C=CC1(C(=O)NC2COC(C(=O)OC)C2)CC(c2cc(F)cc(F)c2)=NO1 (centres unmarked) [Example 1.70]
2. COC(=O)[C@H]1OCC[C@@H]1NC(=O)[C@@]1(C)CC(c2cc(F)cc(F)c2)=NO1 [Example 1.92]
3. C=CC1(C(=O)NC2COC(C(=O)OC)C2)CC(c2cc(F)cc(F)c2)=NO1 (mixture of isomers) [Example 1.68]

**Result**
1. 65
2. 10
3. 20

---

- System: ZEAMA Sileno
- ASSAY NAME: Safener seed treatment with pre-emergence herbicide application, crop damage test in greenhouse
- Assay type: in vivo, maize
- TEST CONTEXT: herbicide 40 g a.i./ha, furilazole 0.25 g a.i./kg seed, 26 DAT
Exercise: for every item that follows, state its recorded Reduction [%].
One number for each entry, in %.

// known answers, use as guide
INSERT INTO results (compound, measurement) VALUES
  ('C=CC1(C(=O)NC2C=CC(C(=O)OC)C2)CC(c2cc(F)cc(F)c2)=NO1 (centres unmarked)', 80),
  ('C=CC1(C(=O)NC2COC(C(=O)OC)C2)CC(c2cc(F)cc(F)c2)=NO1 (centres unmarked) [Example 1.70]', 24),
  ('COC(=O)C1=C[C@@H](NC(=O)[C@@]2(C)CC(c3cc(F)cc(F)c3)=NO2)CC1', 100),
  ('COC(=O)[C@H]1OCC[C@@H]1NC(=O)[C@@]1(C)CC(c2cc(F)cc(F)c2)=NO1', 86);

Let us move to another entry and its Reduction [%].
**Query** For C=CC1(C(=O)NC2COC(C(=O)OC)C2)CC(c2cc(F)cc(F)c2)=NO1 (mixture of isomers) [Example 1.68] , what is its reported Reduction [%]?
**Result** 79

---

- System: ZEAMA Sileno
- ASSAY NAME: Safener seed treatment with pre-emergence herbicide application, crop damage test in greenhouse
- Type: in vivo, maize
- TEST CONTEXT: pre-emergence, herbicide alone 40 g a.i./ha, 26 DAT, % crop damage
- Excerpt: Seed Treatment; Pre-Emergence • A) Method Description […] After application, the test plants were kept in the greenhouse under good growth conditions. At intervals up to 4 weeks after application (=28 days after treatment; DAT), % crop damage observed on the treated plants was scored visually in comparison to control plants that had not received any safener or herbicide treatment. […]
The label 1.0 is reserved for HER effect [%] strictly under 70%; 0.0 covers values equal to or above it.

INSERT INTO measurements (compound, target_under_test, assigned_category) VALUES
  ('C=CC1(C(=O)NC2COC(C(=O)OC)C2)CC(c2cc(F)cc(F)c2)=NO1 (centres unmarked) [Example 1.70]', 'ZEAMA Sileno', 0.0);

**Query** Strictly below 70%: is that where HER effect [%] of C=CC1(C(=O)NC2C=CC(C(=O)OC)C2)CC(c2cc(F)cc(F)c2)=NO1 (centres unmarked) sits?
**Result** 1.0

**Query** Strictly below 70%: is that where HER effect [%] of C=CC1(C(=O)NC2COC(C(=O)OC)C2)CC(c2cc(F)cc(F)c2)=NO1 (mixture of isomers) [Example 1.68] sits?
**Result** 0.0

**Query** Strictly below 70%: is that where HER effect [%] of `COC(=O)C1=C[C@@H](NC(=O)[C@@]2(C)CC(c3cc(F)cc(F)c3)=NO2)CC1` sits?
**Result** 1.0
